Examples of binders with documented OD450 follow.
# measured_on: T1, human MSLN-hFc protein (Acro, Cat. No. MSN-H5253) (human, UniProt Q13421 296-580)
# T1 construct: the method names the coated protein as human MSLN-hFc (Acro); also called human MSLN full-length protein
# protocol_summary: ELISA on coated antigen, antibody 0.001 nM
Please reply with the bare figure in OD450 and do not write the unit itself.

Record excerpt, results attached:
F7.33.24-H6 (scFv, not shown: small tags and cut ends, also called S009-F7.33.24 humanized antibody VH1a + VL3) scFv: EVQLVQSGAEVKKPGASVKVSCKASGYTFTSYWMHWVRQAPGQRLEWMGNVNPSSGGSNYNEKFKNRVTITVDKSASTAYMELSSLRSEDTAVYYCAPHYIGSRPGFAYWGQGTLVTVSSGGGGSGGGGSGGGGSDIVMTQTPLSLSVTPGQPASISCKASQNVGTNIAWYQQKPGQSPQALIYSASYRYSGVPDRFSGSGSGTDFTLKISRVEAEDVGVYYCQQYNSYPLTFGGGTKVEIK = 0.05
F7.33.24-H4 (scFv, not shown: small tags and cut ends, also called S009-F7.33.24 humanized antibody VH1a + VL1) scFv: EVQLVQSGAEVKKPGASVKVSCKASGYTFTSYWMHWVRQAPGQRLEWMGNVNPSSGGSNYNEKFKNRVTITVDKSASTAYMELSSLRSEDTAVYYCAPHYIGSRPGFAYWGQGTLVTVSSGGGGSGGGGSGGGGSDIVMTQSPDSLAVSLGERATINCKASQNVGTNIAWYQQKPGQSPKALIYSASYRYSGVPDRFSGSGSGTDFTLTISSLQAEDVAVYYCQQYNSYPLTFGGGTKVEIK = 0.05
F7.33.24-H2 (scFv, not shown: small tags and cut ends, also called S009-F7.33.24 humanized antibody VH1 + VL2) scFv: EVQLVQSGAEVKKPGASVKVSCKASGYTFTSYWMHWVRQAPGQRLEWMGNVNPSNGGSNYNEKFKNRVTITVDKSASTAYMELSSLRSEDTAVYYCAPHYIGSRPGFAYWGQGTLVTVSSGGGGSGGGGSGGGGSDIVMTQTPLSLSVTPGQPASISCKASQNVGTNIAWYLQKPGQSPQALIYSASYRYSGVPDRFSGSGSGTDFTLKISRVEAEDVGVYYCQQYNSYPLTFGGGTKVEIK = 0.05
F7.33.24-H5 (scFv, not shown: small tags and cut ends, also called S009-F7.33.24 humanized antibody VH1a + VL2) scFv: EVQLVQSGAEVKKPGASVKVSCKASGYTFTSYWMHWVRQAPGQRLEWMGNVNPSSGGSNYNEKFKNRVTITVDKSASTAYMELSSLRSEDTAVYYCAPHYIGSRPGFAYWGQGTLVTVSSGGGGSGGGGSGGGGSDIVMTQTPLSLSVTPGQPASISCKASQNVGTNIAWYLQKPGQSPQALIYSASYRYSGVPDRFSGSGSGTDFTLKISRVEAEDVGVYYCQQYNSYPLTFGGGTKVEIK = 0.05

Attention now shifts to the item below.
Exercise: Quick check: OD450 of F7.33.24-H12 (scFv, not shown: small tags and cut ends, also called S009-F7.33.24 humanized antibody VH2a + VL3) scFv: EVQLVQSGAEVKKPGASVKVSCKASGYTFTSYWMHWVRQAPGQGLEWMGNVNPSNAGSNYNEKFKNRVTITVDKSASTAYMELSSLRSEDTAVYYCAPHYIGSRPGFAYWGQGTLVTVSSGGGGSGGGGSGGGGSDIVMTQTPLSLSVTPGQPASISCKASQNVGTNIAWYQQKPGQSPQALIYSASYRYSGVPDRFSGSGSGTDFTLKISRVEAEDVGVYYCQQYNSYPLTFGGGTKVEIK ?
Solution: 0.04
